tested on: HCC1569; experiment: cell number relative to DMSO (% of DMSO); higher = more cells (less growth inhibition / toxicity); details: concentration: 10 µM; 24 h;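 note: TDF denotes transformed human dermal fibroblasts of mesenchymal origin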
quantity measured: cell number
Respond using a number only.

Reference set (6 entries):
COc1ccc(C2Sc3ccccc3N(CCN(C)C)C(=O)C2OC(C)=O)cc1.Cl (stereo not drawn) [Diltiazem hydrochloride] : 101
CC(=O)SC1CC2=CC(=O)CCC2(C)C2CCC3(C)C(CCC34CCC(=O)O4)C12 (stereo not drawn) : 99.1
CN(C)CCC=C1c2ccccc2C=Cc2ccccc21.Cl [Cyclobenzaprine hydrochloride] : 99.3
CN1CCN2c3ccccc3Cc3ccccc3C2C1.Cl (stereo not drawn) [Mianserin.HCl] : 107
Nc1cc(-c2ccncc2)c[nH]c1=O : 99.8
CCC(CCC(C)C1CCC2C3CC=C4CC(O)CCC4(C)C3CCC12C)C(C)C (stereo not drawn) : 99.8

Look up cell number: Clc1ccc(CCC(Cn2ccnc2)Sc2c(Cl)cccc2Cl)cc1.O=[N+]([O-])O (stereo not drawn) [Butoconazole nitrate]
98.1

State the recorded cell number for this entry: O=C(O)Cc1c[nH]c2ccc(O)cc12 [5-Hydroxyindolacetic acid]
104
